Biological target: Albumin (Bos taurus) (UniProt P02769)
Sequence (P02769 whole entry, looked up): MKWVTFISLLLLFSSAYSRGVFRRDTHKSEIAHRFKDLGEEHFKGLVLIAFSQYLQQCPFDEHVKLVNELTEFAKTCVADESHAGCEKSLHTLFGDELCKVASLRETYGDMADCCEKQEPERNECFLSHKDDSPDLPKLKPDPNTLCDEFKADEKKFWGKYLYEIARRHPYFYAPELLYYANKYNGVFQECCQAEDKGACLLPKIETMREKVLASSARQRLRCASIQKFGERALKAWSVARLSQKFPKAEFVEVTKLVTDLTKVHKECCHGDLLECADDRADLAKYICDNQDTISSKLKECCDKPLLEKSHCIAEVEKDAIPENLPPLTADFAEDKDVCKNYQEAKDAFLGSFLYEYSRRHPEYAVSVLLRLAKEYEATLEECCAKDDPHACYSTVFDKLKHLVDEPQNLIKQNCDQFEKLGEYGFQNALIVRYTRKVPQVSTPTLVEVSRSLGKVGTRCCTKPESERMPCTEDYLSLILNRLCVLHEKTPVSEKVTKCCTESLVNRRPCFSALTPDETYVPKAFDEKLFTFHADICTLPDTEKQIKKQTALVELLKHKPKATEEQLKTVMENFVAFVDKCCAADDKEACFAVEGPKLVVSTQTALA
Experiment: bovine serum albumin binders on microarray, profiling panel, artefact control for SMM control protein annotation, biochemical, small-molecule microarray, Alexa647 label, 635/667 nm fluorescence (AID 1118);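 further: score merges 667 nm emission intensity and signal-to-noise per printed compound spot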
Conditions: BSA-A647 binding, fluorescence 635 nm, higher = more signal
Endpoint: composite z-score

INSERT INTO assay_data (molecule, reported_measurement) VALUES
  ('COC(=O)[C@@H]1CC[C@H](C)[C@@H](c2ccc(C)cc2)N1C(=O)c1ccc(C=NOC[C@@H](C)[C@H](OCc2ccccc2)C(C)C)cc1', 0.56),
  ('CC(C)(C)N1C(=O)[C@H]2[C@H]3[C@H](O)[C@H](O)CC(=O)[C@H]3CC[C@H]2C1=O', 0.472),
  ('C[C@@H]1CC[C@H]2C(=O)O[C@@H](COc3ccc(C(C)(C)C)cc3)CN2[C@@H]1c1ccc(Br)cc1', 0.0192),
  ('COc1ccc(COC(=O)NN=C2C[C@@H](O)[C@@H](O)[C@@H]3[C@@H]4C(=O)N(Cc5ccccc5)C(=O)[C@@H]4CC[C@H]23)cc1', 0.719),
  ('CON=C(C)CCC(=O)OC[C@H]1O[C@H](c2ccccc2)C=C[C@@H]1Oc1ccc(OC)cc1', 0.443),
  ('COC(=O)[C@@H]1CC[C@H](C)[C@@H](c2ccc(C)cc2)N1C(=O)c1ccc(C=NO[C@@H](C)c2cn([C@H](CO)Cc3ccccc3)nn2)cc1', 0.597),
  ('CCO[C@H](c1cc(OC)cc([N+](=O)[O-])c1OC)[C@H](C)C=CCC(=O)OC', -0.424),
  ('COC(=O)CC=C[C@@H](C)[C@@H](C=NOC[C@@H](O)[C@H]1O[C@@H]2OC(C)(C)O[C@@H]2[C@H]1O)NS(=O)(=O)c1ccc(C)cc1', -0.0786),
  ('CCCNC(=O)OC[C@H]1O[C@H](CCON=C(C)CCC(=O)OC[C@H]2O[C@H](c3ccccc3)C=C[C@@H]2Oc2ccc(OC)cc2)C=C[C@@H]1Oc1ccc(OC)cc1', 0.161),
  ('C#CCCCON=C1C[C@@H](O)[C@@H](O)[C@@H]2[C@@H]3C(=O)N(CCC(=O)OCC)C(=O)[C@@H]3CC[C@H]12', 0.356),
  ('CCOC(=O)[C@H](CC(C)C)NC(=O)CCC1CC(OC(=O)NCCc2ccc(F)cc2)CC2(CCCC(COC(=O)NCCC(C)C)O2)O1 (some centres undefined)', 0.281),
  ('CCOC(=O)[C@H](Cc1ccccc1)NC(=O)CCC1CC(OC(=O)NCCc2ccc(F)cc2)CC2(CCCC(COC(=O)NCCc3ccc(Cl)cc3)O2)O1 (some centres undefined)', 0.755),
  ('COc1cccc([C@H]2Oc3ccc(OC)cc3C(=NO[C@@H]3O[C@H](COC(C)=O)[C@@H](OC(C)=O)[C@H](OC(C)=O)[C@H]3OC(C)=O)[C@@H]2O)c1', 0.0351),
  ('CCOC(=O)NN=C1C[C@@H](O)[C@@H](O)[C@@H]2[C@@H]3C(=O)N(c4ccc(F)cc4F)C(=O)[C@@H]3CC[C@@H]12', 0.66);

* * *

Assay: binders of probe aHhip on microarray, primary screen, stem cell growth factor project, biochemical, small-molecule microarray, fluorescence 635/667 (AID 1087);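 further: score merges spot fluorescence at 667nm with spot signal to noise ratio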
Details: higher = more signal
Endpoint: composite z-score

INSERT INTO assay_data (molecule, reported_measurement) VALUES
  ('CC(=O)Nc1ccc([C@@H]2N[C@H](C(=O)O)CC[C@H]2C)cc1', -0.0618),
  ('CO[C@H]1COC(=O)CCC[C@@H](C)[C@H](OC)COC(=O)[C@@H](C)NC(=O)CC=C[C@@H]1C', -0.0994),
  ('COC(=O)[C@@H]1CC[C@H](C)[C@@H](c2ccc(C)cc2)N1C(=O)c1ccc(C=NO[C@@H](C)c2cn([C@H](CO)Cc3ccccc3)nn2)cc1', 0.25),
  ('CC(=O)O[C@H]1C2=CO[C@H](C)[C@H]3[C@H]4C5=C([C@H](O)[C@H]6O[C@H]6C5=O)[C@H](OC4C)[C@@]23C(=O)[C@@H]2O[C@@H]21 (some centres not stated)', 0.154),
  ('O=C1[C@H]2[C@H]3[C@H](O)[C@H](O)CC(=NOC[C@@H](O)COCc4ccco4)[C@H]3CC[C@H]2C(=O)N1Cc1ccccc1', -0.132),
  ('CON=C[C@@H](NS(=O)(=O)c1ccc(C)cc1)[C@H](C)C=CCC(=O)OC', -0.189),
  ('CO[C@@H]1COC(=O)CC=C[C@@H](C)[C@H](OC)COC(=O)[C@@H](C)COC(=O)CC=C[C@H]1C', 0.312);
